Recorded values, source patent US9187438B2.

- assaySystem: 11β-HSD1 (Homo sapiens, UniProt P28845)
- Construct: adding 1 μg of human hepatic microsome (Xenotech); tissue Xenotech; host or cells: human liver microsomes
- Sequence (P28845 whole entry): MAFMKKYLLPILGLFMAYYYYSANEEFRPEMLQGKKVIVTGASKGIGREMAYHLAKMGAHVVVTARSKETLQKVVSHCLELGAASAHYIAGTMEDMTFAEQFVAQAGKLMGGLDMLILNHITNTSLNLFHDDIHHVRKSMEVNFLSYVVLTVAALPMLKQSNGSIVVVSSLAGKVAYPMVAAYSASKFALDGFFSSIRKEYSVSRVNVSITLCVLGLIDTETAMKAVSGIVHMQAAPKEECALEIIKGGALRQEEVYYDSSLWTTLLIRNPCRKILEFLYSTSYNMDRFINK
- protocolNotes: Human enzymatic activity of 11β-HSD1 from liver microsomes, [3H]cortisone to [3H]cortisol conversion, SPA (inhibition % or EC50)
- Assay type: biochemical
- particulars: 10^−6M inhibitor, read-out: 11β-HSD1/SPA % inhib. (10^−6M)
- Experimental: The enzymatic test is based on the conversion of [^3H] cortisone into [^3H] cortisol by 11β-HSD1. […] The sealed plates are centrifuged at low speed for mixing the components and then incubated for 2 hours at 37° C. (enzymatic phase). […]
Lab note: anything with inhibition at 1 µM at or over 90% counts as MET; the rest go in NOT MET.

Illustrative cases are given below, each with its answer.
compound: CN1C(C(=O)c2ccc(Cl)c(Cl)c2)=C(O)c2ccccc2S1(=O)=O [Example 123]
assaySystem: 11β-HSD1 (Homo sapiens, UniProt P28845)
label: MET
--
compound: CN1C(C(=O)c2ccc3ccccc3c2)=C(OC(=O)COc2ccccc2)c2ccccc2S1(=O)=O [Example 54]
assaySystem: 11β-HSD1 (Homo sapiens, UniProt P28845)
label: MET
--
compound: CN1C(C(=O)c2ccc3ccccc3c2)=C(O)c2ccccc2S1(=O)=O [Example 1]
assaySystem: 11β-HSD1 (Homo sapiens, UniProt P28845)
label: MET
--
compound: Cc1ccc(C(=O)C2=C(O)c3ccccc3S(=O)(=O)N2C)cc1 [Example 3]
assaySystem: 11β-HSD1 (Homo sapiens, UniProt P28845)
label: MET
--
compound: CN1C(C(=O)c2ccc3ccccc3c2)=C(O)c2ccc(F)cc2S1(=O)=O [Example 17]
assaySystem: 11β-HSD1 (Homo sapiens, UniProt P28845)
label: MET

Req: Textbook exercise: given the entry CN1C(C(=O)c2cccc(Br)c2)=C(O)c2ccccc2S1(=O)=O [Example 142] , state whether its inhibition at 1 µM is greater than or equal to 90%.
Resp: NOT MET
